System: LOC_OS04G35114-cb001
Test: thermal shift delta Tm vs DMSO control; higher = stronger stabilization (binding);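 note: purified Escherichia coli-expressed rice kinase domain construct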
Conditions: 12.5 µM; protein concentration 2 µM
MEASUREMENT_TYPE: thermal shift delta Tm (°C)
Response body: numeric value in °C, unit text excluded.

Take a look at these entries with their results.
Would you mind telling me what thermal shift delta Tm value was observed for `C[C@@H](Oc1ccc2[nH]nc(/C=C/c3cnn(CCO)c3)c2c1)c1c(Cl)cncc1Cl` ?
12.3

# query: thermal shift delta Tm of entry `Oc1cccc(-c2nc(N3CCOCC3)c3oc4ncccc4c3n2)c1`
0.22

I would be grateful if you could share the reported thermal shift delta Tm for C1=N/C2=N/c3ccc(OCCN4CCCC4)c(c3)COC/C=C/COCc3cccc(c3)C(=C1)N2 [Pacritinib (SB1518)] .
10.9

Data request, read-out thermal shift delta Tm, for CCN(CC)CCNC(=O)c1c(C)[nH]c(/C=C2\C(=O)Nc3ccc(-c4csc(-c5ccccc5)n4)cc32)c1C [Amcasertib (BBI503)]
15

Entry under review: CN1CCN(c2ccc3nc(-c4c(N)c5c(F)cccc5[nH]c4=O)[nH]c3c2)CC1 [Dovitinib (TKI-258, CHIR-258)] . Reported thermal shift delta Tm?
7.2

Next:
Which thermal shift delta Tm value is on record for COc1cc(F)c(F)c(Nc2ccc(I)cc2F)c1NS(=O)(=O)C1(C[C@H](O)CO)CC1 [Refametinib (RDEA119, Bay 86-9766)] ?
0.19

Need thermal shift delta Tm of FC(F)(F)c1ccc(/C=C/c2nc(COc3ccc(CCCCn4ccnn4)cc3)co2)cc1 [Mubritinib (TAK 165)] , thanks.
0.27

Sample `Cn1cc(-c2cnn3c(N)c(Br)c([C@@H]4CCCNC4)nc23)cn1` — what was its thermal shift delta Tm?
1.17

* * *

System: LOC_OS02G17970-cb001
Assay: thermal shift delta Tm vs DMSO control; higher = stronger stabilization (binding)
Conditions: 12.5 µM; protein concentration 2 µM
Please mark Y if the recorded thermal shift delta Tm is equal to or greater than 0.6 °C, and N if it falls below.

Some solved entries appear below for comparison.
Decide: is the reported value of thermal shift delta Tm for `Nc1ncnc2n[nH]c(Nc3ccc(F)cc3)c12` equal to or greater than 0.6 °C?
Y

Quick check: does `C#Cc1cccc(Nc2ncnc3cc4c(cc23)OCCOCCOCCO4)c1` have thermal shift delta Tm greater than or equal to 0.6 °C?
Y

Kindly determine if thermal shift delta Tm recorded for COc1cc(Nc2ncc(F)c(Nc3ccc4c(n3)N(COP(=O)(O)O)C(=O)C(C)(C)O4)n2)cc(OC)c1OC [Fostamatinib (R788)] is above or exactly 0.6 °C.
N

Is it the case that `CSc1cccc(Nc2ncc3cc(-c4c(Cl)cccc4Cl)c(=O)n(C)c3n2)c1` has thermal shift delta Tm reaching or exceeding 0.6 °C?
N

Does thermal shift delta Tm meet or surpass 0.6 °C for `CCNC(=O)C#Cc1ccc2c(C(=Nc3ccc(CN(C)C)cc3)c3ccccc3)c(O)[nH]c2c1` ?
Y

Further cases:
Could you please find out whether `O=C(/C=C/c1ccc(O)c(O)c1)c1ccc(O)cc1O` has thermal shift delta Tm that meets 0.6 °C or exceeds it?
Y

Does the molecule `Oc1ccc(Nc2nc(-c3ccc(Cl)cc3)cs2)cc1` have recorded thermal shift delta Tm that is 0.6 °C or more?
N

Decide: is the reported value of thermal shift delta Tm for `Cc1[nH]nc2ccc(-c3cncc(OC[C@@H](N)Cc4ccccc4)c3)cc12` equal to or greater than 0.6 °C?
N

Dear colleague, could you confirm whether `CNc1nc(-c2ccc3c(N)n[nH]c3c2)cc(N2C[C@@H](C(=O)NC3CCCCC3)CC[C@H]2C)n1` has thermal shift delta Tm at or above 0.6 °C?
Y

Has `NC1(c2ccc(-c3nc4ccn5c(=O)[nH]nc5c4cc3-c3ccccc3)cc2)CCC1` a recorded thermal shift delta Tm greater than or equal to 0.6 °C?
Y

* * *

Tested on: LOC_OS02G08530-cb003
Experiment: thermal shift delta Tm vs DMSO control; higher = stronger stabilization (binding)
Settings: 12.5 µM; protein concentration 2 µM
Decision: thermal shift delta Tm compared against 0.6 °C; not below it gives met, below it gives not met.

Example results:
Identify whether the reported thermal shift delta Tm of the following compound is 0.6 °C or greater: `CCC(=O)Nc1cccc(Oc2nc(Nc3ccc(N4CCN(C)CC4)cc3OC)ncc2Cl)c1`
met

Test whether the compound CC1(C)OC(=O)C=C[C@]2(C)[C@H]3CC[C@@]4(C)[C@H](c5ccoc5)OC(=O)[C@H]5O[C@]54[C@]3(C)C(=O)C[C@@H]12 [Obacunone] records thermal shift delta Tm of 0.6 °C or higher.
not met

Can `CCS(=O)(=O)N1CCN(c2ccc(Nc3ncc(C(N)=O)c(NC4CC4)n3)cc2)CC1` be said to have thermal shift delta Tm at or above 0.6 °C?
met

Is thermal shift delta Tm for Cc1cc(Nc2cc(Cl)nc(Oc3ccc([N+](=O)[O-])cc3)n2)n[nH]1 [Autophinib] at or above 0.6 °C?
met

Record `CC(C)(C)NC(=O)c1cncn1C1CCN(c2ccc(-c3nnc(C(F)(F)F)o3)cn2)CC1` ; criterion: thermal shift delta Tm no lower than 0.6 °C. Met?
not met

Pending compound:
Check the entry O=c1c(-c2ccc(O)cc2)coc2cc(O)cc(O)c12 [Genistein] : does thermal shift delta Tm equal or exceed 0.6 °C?
met

* * *

System: LOC_OS01G13800-cb001
Assay: thermal shift delta Tm vs DMSO control; higher = stronger stabilization (binding)
Settings: 12.5 µM; protein concentration 2 µM
The entries below are paired with their reported thermal shift delta Tm.
Give just the numeric value; °C need not be written.

Quick one: thermal shift delta Tm of `Nc1ccc(C(=O)Nc2cccc(-c3nc(N4CCOCC4)c4oc5ncccc5c4n3)c2)cn1` ?
0.49

Param item = `O=C(NCCO)c1cccc(-c2cc(Nc3ccc(OC(F)(F)F)cc3)ncn2)c1` ; retrieve measured thermal shift delta Tm.
0.62

Which thermal shift delta Tm value is on record for `C[C@@H]1COCCN1c1cc(C2([S@](C)(=N)=O)CC2)nc(-c2cc[nH]c3nccc2-3)n1` ?
0.31

Next item in the queue.
If you can, please state the reported thermal shift delta Tm value of FC(F)(F)c1ccc(Nc2nc3ccc(Oc4ccnc(-c5ncc(C(F)(F)F)[nH]5)c4)cc3[nH]2)cc1 [Raf265 derivative] .
3.55

* * *

System: LOC_OS01G60700-cb002
Experiment: thermal shift delta Tm vs DMSO control; higher = stronger stabilization (binding)
Conditions: 12.5 µM; protein concentration 2 µM
thermal shift delta Tm of 0.5 °C or higher: yes (1). Under 0.5 °C: no (0).

Solved entries (count: 4):
In plain terms: is recorded thermal shift delta Tm at least 0.5 °C for `O=C(Nc1cccnc1)c1cc(-c2ccnc(F)c2)ccc1OCc1ccccc1` ?
yes (1)

Could you tell me if the measured thermal shift delta Tm of O=C(Nc1ccc(-c2ccnc(Nc3ccc(N4CCOCC4)cc3)n2)cc1)C1CCCN1 (centres undefined) reaches 0.5 °C or more?
yes (1)

State whether the measured thermal shift delta Tm reaches 0.5 °C, counting equality as reaching it, for `O=C(c1ccc(Nc2nccc(-c3cc4ccccc4s3)n2)cc1)N1CCC(N2CCCC2)CC1`
no (0)

Hello, I need to know if `COC(=O)Nc1ccc(-c2nc(N3CCOCC3)c3cnn(C4CCN(C(=O)OC)CC4)c3n2)cc1` has measured thermal shift delta Tm not below 0.5 °C. Thanks!
yes (1)

Continuing:
I'd appreciate it if you could say whether CC(C)c1cnn2c(NCc3ccccc3-n3cccn3)nc(OC3CCCNC3)nc12 (centres undefined) has thermal shift delta Tm at least equal to 0.5 °C.
yes (1)

// inclusive: thermal shift delta Tm at least 0.5 °C? input: `O=S(=O)(c1cccc2c(I)cccc12)N1CCCNCC1`
no (0)

thermal shift delta Tm >= 0.5 °C for `Cc1nc(N)sc1-c1ccnc(Nc2ccc(N3CCOCC3)cc2)n1` ?
yes (1)

Determine whether this compound has thermal shift delta Tm no lower than 0.5 °C: `CCS(=O)(=O)Nc1ccc2c(c1)/C(=C(/Nc1ccc(CN3CCCCC3)cc1)c1ccccc1)C(=O)N2`
yes (1)

Is reported thermal shift delta Tm greater than or equal to 0.5 °C here: `N#CC(=C(/N)Sc1ccccc1N)/C(C#N)=C(\N)Sc1ccccc1N`
no (0)

* * *

Tested on: LOC_OS05G30820-cb001
Assay: thermal shift delta Tm vs DMSO control; higher = stronger stabilization (binding)
Conditions: 12.5 µM; protein concentration 2 µM
Binary classification by thermal shift delta Tm, with 0.5 °C as an inclusive lower bound for fulfilled; all other cases are not fulfilled.

As a guide, the following entries are already answered.
Is thermal shift delta Tm at least 0.5 °C? Consider `Cc1nc(Nc2cnn(C3CCNCC3)c2)nc2c1N(C)C(=O)c1cc3ccccc3cc1N2C`
not fulfilled

Has `O=C1NCCc2[nH]c(-c3ccncc3)cc21` a recorded thermal shift delta Tm greater than or equal to 0.5 °C?
fulfilled

More entries:
Determine whether measured thermal shift delta Tm meets or exceeds 0.5 °C for `CNc1nc(-c2ccc3c(N)n[nH]c3c2)cc(N2C[C@@H](C(=O)NC3CCCCC3)CC[C@H]2C)n1`
not fulfilled

Please indicate if the recorded thermal shift delta Tm for `Nc1nccc(Oc2ccc(NC(=O)c3c[nH]cc(-c4ccc(F)cc4)c3=O)cc2F)c1Cl` meets or exceeds 0.5 °C.
fulfilled

Record `Cc1ccc(S(=O)(=O)/C=C/C#N)cc1` ; criterion: thermal shift delta Tm no lower than 0.5 °C. Met?
not fulfilled

Say whether `CNC(=O)c1ccccc1Nc1cc(Nc2ccc(N3CCOCC3)cc2OC)ncc1C(F)(F)F` shows thermal shift delta Tm of 0.5 °C or more.
fulfilled

Could you verify whether the entry `C#Cc1cccc(Nc2ncnc3cc(OCCOC)c(OCCOC)cc23)c1` shows thermal shift delta Tm of no less than 0.5 °C?
not fulfilled

Confirm if thermal shift delta Tm reported for the molecule `O=c1cc(N2CCOCC2)oc2c1ccc1ccccc12` is 0.5 °C or above.
not fulfilled

Could you tell me if the measured thermal shift delta Tm of `Nc1ncc(-c2ccnc(Nc3ccncc3)n2)c(CC2CC2)n1` reaches 0.5 °C or more?
not fulfilled

Quick check, thermal shift delta Tm >= 0.5 °C? `O=c1c(O)c(-c2ccc(O)c(O)c2)oc2cc(O)cc(O)c12`
fulfilled

Is it the case that `COC(=O)Nc1ccc(-c2nc(N3CCOCC3)c3cnn(C4CCN(C(=O)OC)CC4)c3n2)cc1` has thermal shift delta Tm reaching or exceeding 0.5 °C?
fulfilled

Is thermal shift delta Tm at least 0.5 °C? Consider `C[C@]1(O)C[C@@H](c2nc(-c3ccc4ccc(-c5ccccc5)nc4c3)c3c(N)nccn32)C1`
fulfilled

Textbook exercise: given the entry `C[C@H](Nc1ncnc2[nH]cnc12)c1cc2ccc(F)cc2nc1-c1ccccn1` , state whether its thermal shift delta Tm is greater than or equal to 0.5 °C.
not fulfilled

Does thermal shift delta Tm meet or surpass 0.5 °C for OC1CCC(Nc2ncc3nc(Nc4c(F)cc(F)cc4F)n([C@H]4CCOC4)c3n2)CC1 (some centres undefined) ?
not fulfilled

Item `COCCOc1cnc2ccn([C@H](C)c3nnc4c(F)cc(-c5cnn(C)c5)cn34)c(=O)c2c1` with thermal shift delta Tm of 0.5 °C or above?
fulfilled

Quick check: does `C=CC(=O)Nc1cccc(C)c1Nc1ncc2cc(-c3c(Cl)c(OC)cc(OC)c3Cl)ccc2n1` have thermal shift delta Tm greater than or equal to 0.5 °C?
not fulfilled

Identify whether the reported thermal shift delta Tm of the following molecule is 0.5 °C or greater: `FC(F)(F)c1ccc(/C=C/c2nc(COc3ccc(CCCCn4ccnn4)cc3)co2)cc1`
fulfilled
